meta.source: ChEMBL document CHEMBL1201862

- Test target: Caspase-6 (Homo sapiens, UniProt P55212)
- Sequence (P55212 24-179 limits assumed): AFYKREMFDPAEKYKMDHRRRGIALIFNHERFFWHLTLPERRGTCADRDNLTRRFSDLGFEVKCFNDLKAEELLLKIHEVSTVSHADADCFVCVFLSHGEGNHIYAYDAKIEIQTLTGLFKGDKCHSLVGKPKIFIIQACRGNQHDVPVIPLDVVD
- Sequence (P55212 194-293 limits assumed): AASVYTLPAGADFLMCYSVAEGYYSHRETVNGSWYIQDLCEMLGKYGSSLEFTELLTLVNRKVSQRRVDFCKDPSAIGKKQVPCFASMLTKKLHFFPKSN
- Experimental details: inhibition of CASP6 peptide cleavage – biochemical, VEID-R110 fluorescence, cherry-pick, dose response (AID 720632)
Activity calls are given as the source filed them. No rule for the calls is given here.
Observation type: AC50

Answered examples (3):
Compound | Reported value
C=CCOc1ccc(C(c2c(C(=O)O)[nH]c3ccccc23)c2c(C(=O)O)[nH]c3ccccc23)cc1 | 14.2 µM (active)
Cc1cccc(NC(=O)CNC(=O)CCc2nc3sc4c(c3c(=O)[nH]2)CCCC4)c1C | 7.7 µM (active)
Cc1c(CCC(=O)O)c(=O)oc2c(C)c(OCc3cc4c(cc3Cl)OCO4)ccc12 | 7.15 µM (active)

Input: Find the recorded AC50 belonging to CC(Cc1ccc(O)cc1)NCC(O)c1ccc(O)c(O)c1 (centres undefined) and report it.
Output: 3.68 µM (active)
